These data points were gathered from PubChem BioAssay (NCATS).

experiment: Cellular viability qHTS for adrenocortical cancer (ACC) cell line NCI-H295R (AID 1963990); settings: CellTiter-Glo ATP luminescence, 48 h; series mostly up to 46.1 µM; also: nearly all actives have a fitted effect of over 60% in size
Results filed as inconclusive are left out. Active and inactive are the calls of the source. Calls follow the shape of the dose curve; as a rule, active = well fitted cell-killing curve with a large enough effect; inconclusive = small, poorly fitted or top-dose-only effect; inactive = flat fitted curve, though single readings scatter.
Could you please pick one outcome from this set? active, inactive

Illustrative cases are given below, each with its answer.
In [3]: df
Out[3]:
                                   molecule  answer_label
0  CCC[C@H](N[C@H]1CCc2cc(F)cc(F)c2C1)C(=O)Nc1cn(C(C)(C)CNCC(C)(C)C)cn1        active
1  Nc1nccc(-c2ccc3noc(-c4ccc(Cl)cc4)c3c2)n1      inactive
2           Nc1ccc(S(=O)(=O)c2ccc(N)cc2)cc1      inactive

Per the records of this test, what outcome belongs to CCC(C)(CN(C)C)OC(=O)c1ccccc1 (stereo unspecified) ?
inactive

Per the records of this test, what outcome belongs to `COc1ccc(F)c(F)c1C(=O)c1cnc(NC2CCN(S(C)(=O)=O)CC2)nc1N` ?
active

Per the records of this test, what outcome belongs to `Oc1ccc(/C=C/c2cc(O)cc(O)c2)cc1` ?
inactive

---

test: Quantitative highthroughput screen to assess conditional lethalithy of P12 Ichikawa cells grown in RPMI1640 with dialyzed fetal bovine serum (RPMI+ds) (AID 1963880); conditions: ATP luminescence, 48 h; P12-Ichikawa viability; series mostly up to 45.8 µM; also: nearly all actives have a fitted effect of over 35% in size;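 as to viability: 100% = DMSO wells and 0% = empty wells on each plate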
Results filed as inconclusive are left out. Calls of active or inactive are those of the source. Calls follow the shape of the dose curve; as a rule, active = well fitted cell-killing curve with a large enough effect; inconclusive = small, poorly fitted or top-dose-only effect; inactive = flat fitted curve, though single readings scatter.
Could you please pick one outcome from this set? Y = active, N = inactive

Illustrative cases are given below, each with its answer.
Compound	Answer Label
COc1cc(OC)c(C=CS(=O)(=O)Cc2ccc(OC)c(NCC(=O)O)c2)c(OC)c1	Y
CCC[C@H](NC(=O)C(C#N)=Cc1cccc(Br)n1)c1ccccc1	Y
CC1(C)CCC(c2ccc(Cl)cc2)=C(CN2CCN(c3ccc(C(=O)NS(=O)(=O)c4ccc(N[C@H](CCN5CCOCC5)CSc5ccccc5)c(S(=O)(=O)C(F)(F)F)c4)cc3)CC2)C1	Y
C[C@@H](c1ncncc1F)[C@](O)(Cn1cncn1)c1ccc(F)cc1F	N
CN[C@H]1[C@@H](O[C@@H]2[C@H](O[C@@H]3[C@@H](O)[C@@H](O)[C@@H](N=C(N)N)[C@@H](O)[C@@H]3N=C(N)N)O[C@H](C)[C@@]2(O)C=O)O[C@@H](CO)[C@@H](O)[C@H]1O	N

Pending compound:
Per the records of this test, what outcome belongs to `O=C(C=Cc1cccc(S(=O)(=O)Nc2ccccc2)c1)NO` ?
Y

---

test: Viability qHTS for spleen associated tyrosine kinase inhibitor (SYKi) naive MV4-11 cells (AID 1963823); conditions: MV4-11 AML viability, CellTiter-Glo luminescence, 72 h; series mostly up to 45 µM; also: nearly all actives have a fitted effect of over 40% in size
Inconclusive results are not listed. Active and inactive are the calls of the source. Calls follow the shape of the dose curve; as a rule, active = well fitted cell-killing curve with a large enough effect; inconclusive = small, poorly fitted or top-dose-only effect, or effect the other way; inactive = no such curve, though single readings can be large or run the other way.
Could you please pick one outcome from this set? active, inactive

Illustrative cases are given below, each with its answer.
Molecule	Answer Label
CC#CC(=O)Nc1ccc2ncnc(Nc3cccc(Br)c3)c2c1	active
C[C@@H]1CC(=O)NN=C1c1ccc(NN=C(C#N)C#N)cc1	active
COCCN(C)Cc1ccc2nc3sc(C(=O)N(C)C4CCCCC4)cn3c2c1	inactive
N=C1CCCN1Cc1[nH]c(=O)[nH]c(=O)c1Cl	inactive
CC1(C)Cc2c(sc(NC(=S)NC(=O)c3ccccc3)c2C(=O)O)CO1	active

Per the records of this test, what outcome belongs to `CN(C)CCCCC(=O)Nc1ccc(NC(=S)NC(=O)c2ccc(C(C)(C)C)cc2)cc1` ?
active

Per the records of this test, what outcome belongs to `CC(C)(O)CS(=O)(=O)Nc1ccc2c(c1)CCN(C(=O)COc1cccnc1)C2` ?
active

---

assay: Viability qHTS for spleen associated tyrosine kinase inhibitor (SYKi) naive MV4-11 cells (AID 1963823); settings: MV4-11 AML viability, CellTiter-Glo luminescence, 72 h; series mostly up to 45 µM; also: nearly all actives have a fitted effect of over 40% in size; also: potency is read from the fitted curve at half-maximal effect
Inconclusive results are not listed. The source made the active and inactive calls. Calls come from the whole dose curve; as a rule, active = well fitted cell-killing curve with a large enough effect; inconclusive = small, poorly fitted or top-dose-only effect, or effect the other way; inactive = no such curve, though single readings can be large or run the other way.
Value Type: Potency

As a guide, the following entries are already answered.
Compound	Potency
CCCCOC(=O)NS(=O)(=O)c1sc(CC(C)C)cc1-c1ccc(Cn2ccnc2)cc1	14800 nM (active)
C=C1CCC2(OC1)OC1CC3C4CC=C5CC(O)CC(O[C@@H]6OC[C@@H](O)[C@H](O)[C@H]6O)C5(C)C4CCC3(C)C1(O)C2C (some centres undefined)	inactive
O=C(NCCO)c1cccc(-c2cc(Nc3ccc(OC(F)(F)F)cc3)ncn2)c1	6510 nM (active)
CC1CC(=O)[C@]2(O)C(C(=O)OCCc3ccc(O)c(O)c3)=CO[C@@H](O[C@@H]3O[C@H](CO)[C@@H](O)[C@H](O)[C@H]3O)[C@H]12 (some centres undefined)	inactive

// lookup Potency for NC(=O)c1ccc(OCC2NC(=O)C3CCCN3C2=O)cc1 (centres undefined)
inactive

// lookup Potency for `C[C@H]1[C@@H](OC(=O)CCC(=O)O)O[C@@H]2O[C@@]3(C)CC[C@@H]4[C@H](C)CC[C@@H]1[C@@]24OO3`
934 nM (active)

// lookup Potency for `COc1cccc(OC)c1-c1ccc(C[C@H](NC(=O)c2c(Cl)cccc2Cl)C(=O)O)cc1`
inactive

// lookup Potency for `O=C(NCCN1CCCC1)c1cc(-c2ccc(CN3CCOCC3)cc2)nc2ccc(F)cc12`
inactive

// lookup Potency for C=C1C(=O)O[C@@H]2[C@H]1CC[C@H](C)C(CCC(=O)O)C2(C)O (some centres undefined)
5800 nM (active)

// lookup Potency for C/C1=C/CCC2=CC(OC2=O)C(C)(C)/C=C/C1=O (centres undefined)
517 nM (active)

// lookup Potency for `CN[C@@H]1CN(c2ccc3c(=O)c(C(=O)O)cn(-c4nccs4)c3n2)C[C@@H]1OC`
407 nM (active)

// lookup Potency for O=C(/C=C/c1ccc(O)cc1)OC1[C@H](O)CC(O)(C(=O)O)C[C@H]1O (some centres undefined)
inactive

// lookup Potency for C[C@@H]1CC[C@]2(C(=O)O)CC[C@]3(C(=O)O)C(=CCC4[C@@]5(C)CC[C@H](O[C@@H]6O[C@@H](C)[C@H](O[C@@H]7O[C@H](CO)[C@@H](O)[C@H](O)[C@H]7O)[C@@H](O)[C@H]6O)C(C)(C)C5CC[C@]43C)C2[C@H]1C (some centres undefined)
inactive

// lookup Potency for `Cc1cc2nc3c(=O)[nH]c(=O)nc-3n(C[C@H](O)[C@H](O)[C@H](O)CO)c2cc1C`
inactive

// lookup Potency for O=C(OC1C=C(CO)C2C(OC3OC(CO)C(O)C(O)C3O)OC=CC12O)c1ccc(O)cc1 (centres undefined)
inactive

// lookup Potency for `CCOC(=O)c1ncn2c1CN(C)C(=O)c1cc(F)ccc1-2`
inactive

// lookup Potency for CC(C)(C(=O)O)c1ccc(C(O)CCCN2CCC(C(O)(c3ccccc3)c3ccccc3)CC2)cc1 (centres undefined)
inactive

// lookup Potency for O=C(Nc1ccc(-c2ccnc(Nc3ccc(N4CCOCC4)cc3)n2)cc1)C1CCCN1 (centres undefined)
1660 nM (active)

// lookup Potency for COc1cc(O)c2c(c1Cl)CC(C)OC2=O (centres undefined)
inactive

---

experiment: Viability qHTS for spleen associated tyrosine kinase inhibitor (SYKi) naive MV4-11 cells (AID 1963823); conditions: MV4-11 AML viability, CellTiter-Glo luminescence, 72 h; series mostly up to 45 µM; also: nearly all actives have a fitted effect of over 40% in size
Results filed as inconclusive are left out. Calls of active or inactive are those of the source. The call rests on the fitted dose curve; in most records, active means well fitted cell-killing curve with a large enough effect; inconclusive means small, poorly fitted or top-dose-only effect, or effect the other way; inactive means no such curve, though single readings can be large or run the other way.
Value Type: viability (% of control)

Molecule	viability (% of control)
CC1(C)CC[C@]2(C(=O)O[C@@H]3O[C@H](CO)[C@@H](O)[C@H](O)[C@H]3O)CC[C@]3(C)C(=CCC4[C@@]5(C)CC[C@H](O[C@H]6O[C@H](CO)[C@@H](O)[C@H](O[C@@H]7O[C@H](CO)[C@@H](O)[C@H](O)[C@H]7O)[C@H]6O)C(C)(C)C5CC[C@]43C)[C@@H]2C1 (some centres undefined)	84% [at 9.25 µM] (inactive)
C/C=C(/C)C(=O)OC1C(OC(C)=O)C23C(O)OC4(CCC5C6(C)CCC(OC7OC(C(=O)O)C(O)C(OC8OC(CO)C(O)C(O)C8OC8OC(C)C(O)C(O)C8OC8OCC(O)C(O)C8O)C7OC7OC(CO)C(O)C(O)C7O)C(C)(C)C6CCC5(C)C4(C)CC2OC(C)=O)C3CC1(C)C (centres undefined)	43.2% [at 9.25 µM] (inactive)

// lookup viability (% of control) for CC1CCC2(C(=O)OC3OC(COC4OC(CO)C(O)C(O)C4O)C(O)C(O)C3O)CCC3(C)C(=CCC4C5(C)CCC(O)C(C)(C(=O)O)C5CCC43C)C2C1(C)O (centres undefined)
98.4% [at 9.25 µM] (inactive)

// lookup viability (% of control) for CC1(C)CC[C@]2(C(=O)O[C@@H]3O[C@H](CO[C@@H]4O[C@H](CO)[C@@H](O)[C@H](O)[C@H]4O[C@@H]4O[C@H](CO)[C@H](O)[C@H](O)[C@H]4O)[C@@H](O)[C@H](O[C@@H]4O[C@H](CO)[C@@H](O)[C@H](O)[C@H]4O)[C@H]3O)CC[C@]3(C)C(=CCC4[C@@]5(C)CC[C@H](O[C@@H]6OC[C@@H](O)[C@H](O)[C@H]6O)[C@@](C)(C(=O)O)C5CC[C@]43C)[C@@H]2C1 (some centres undefined)
76.7% [at 9.25 µM] (inactive)
